# System: Staphylococcus aureus
# EXPERIMENTAL_DETAILS: Antimicrobial activity against methicillin-susceptible Staphylococcus aureus after 24 hrs by broth microdilution method
# Format: functional

{"columns": ["SAMPLE_SMILES", "MIC50 (µg/mL)"],
 "data": [
  ["CN[C@H](CC(C)C)C(=O)N[C@H]1C(=O)N[C@@H](CC(N)=O)C(=O)N[C@H]2C(=O)N[C@H]3C(=O)N[C@H](C(=O)N[C@H](C(=O)O)c4cc(O)cc(O)c4-c4cc3ccc4O)[C@H](O)c3ccc(c(Cl)c3)Oc3cc2cc(c3O[C@@H]2O[C@H](CO)[C@@H](O)[C@H](O)[C@H]2O[C@H]2C[C@](C)(N)[C@H](O)[C@H](C)O2)Oc2ccc(cc2Cl)[C@H]1O", 0.25],
  ["CN(C)[C@@H]1C(O)=C(C(N)=O)C(=O)[C@@]2(O)C(O)=C3C(=O)c4c(O)cccc4[C@@](C)(O)[C@H]3C[C@@H]12", 4]
]}

###

Below, each entry is listed alongside its reported MBC50.
# System: Staphylococcus hominis
# EXPERIMENTAL_DETAILS: Bactericidal activity against methicillin-susceptible coagulase-negative Staphylococcus hominis after 24 hrs by plate counting method
# Assay type: functional
READOUT_LABEL: MBC50 (mg/L)

{"columns": ["SAMPLE_SMILES", "READOUT_LABEL", "RESULT_UNIT", "NUMBER"],
 "data": [
  ["CN[C@H](CC(C)C)C(=O)N[C@H]1C(=O)N[C@@H](CC(N)=O)C(=O)N[C@H]2C(=O)N[C@H]3C(=O)N[C@H](C(=O)N[C@H](C(=O)O)c4cc(O)cc(O)c4-c4cc3ccc4O)[C@H](O)c3ccc(c(Cl)c3)Oc3cc2cc(c3O[C@@H]2O[C@H](CO)[C@@H](O)[C@H](O)[C@H]2O[C@H]2C[C@](C)(N)[C@H](O)[C@H](C)O2)Oc2ccc(cc2Cl)[C@H]1O", "MBC50", "mg/L", 1],
  ["COc1cc(O)c(C(=O)[C@@H]2[C@H](CC=C(C)C)C(C)=CC[C@H]2c2ccccc2)c(O)c1", "MBC50", "mg/L", 1],
  ["CC(=O)NC[C@H]1CN(c2ccc(N3CCOCC3)c(F)c2)C(=O)O1", "MBC50", "mg/L", 2],
  ["Cc1onc(-c2ccccc2)c1C(=O)N[C@@H]1C(=O)N2[C@@H]1SC(C)(C)[C@@H]2C(=O)O", "MBC50", "mg/L", 2],
  ["CC[C@H]1OC(=O)[C@H](C)[C@@H](O[C@H]2C[C@@](C)(OC)[C@@H](O)[C@H](C)O2)[C@H](C)[C@@H](O[C@@H]2O[C@H](C)C[C@H](N(C)C)[C@H]2O)[C@](C)(O)C[C@@H](C)C(=O)[C@H](C)[C@@H](O)[C@]1(C)O", "MBC50", "mg/L", 2],
  ["CC1(C)S[C@@H]2[C@H](NC(=O)[C@H](N)c3ccccc3)C(=O)N2[C@H]1C(=O)O", "MBC50", "mg/L", 4],
  ["CN(C)[C@@H]1C(O)=C(C(N)=O)C(=O)[C@@]2(O)C(O)=C3C(=O)c4c(O)cccc4[C@@](C)(O)[C@H]3C[C@@H]12", "MBC50", "mg/L", 8],
  ["Cc1ccc(C(C)C)c(O)c1", "MBC50", "mg/L", 256],
  ["C[C@H]1COc2c(N3CCN(C)CC3)c(F)cc3c(=O)c(C(=O)O)cn1c23.C[C@H]1COc2c(N3CCN(C)CC3)c(F)cc3c(=O)c(C(=O)O)cn1c23.O", "MBC50", "mg/L", 1]
]}

Data origin, for the record: ChEMBL document CHEMBL1649231
